Biological target: T1, neurotensin receptors (frozen tissue sections from receptor-positive human tumors) (human, UniProt P30989 1-418)
T1 construct: whole, on cells
T1 sequence (P30989 whole entry): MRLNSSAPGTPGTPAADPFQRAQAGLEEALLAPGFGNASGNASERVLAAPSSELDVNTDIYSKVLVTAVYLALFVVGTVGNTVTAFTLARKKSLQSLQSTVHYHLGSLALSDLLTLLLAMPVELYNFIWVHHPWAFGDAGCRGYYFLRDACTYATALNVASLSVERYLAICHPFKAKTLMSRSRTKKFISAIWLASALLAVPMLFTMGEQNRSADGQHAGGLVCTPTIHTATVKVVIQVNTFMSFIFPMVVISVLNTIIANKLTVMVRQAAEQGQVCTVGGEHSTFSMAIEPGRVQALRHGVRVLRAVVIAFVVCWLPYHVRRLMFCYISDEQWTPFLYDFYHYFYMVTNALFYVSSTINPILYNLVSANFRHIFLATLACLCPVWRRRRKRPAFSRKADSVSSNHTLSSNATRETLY
Assay: competitive binding vs radioiodinated native neurotensin, human tumor sections
Excerpt: Frozen tissue sections from receptor-positive human tumors were used in a competitive binding assay.
[ ]: non-standard residue; d: D form. The star is where a group is joined. DTPA = O=C(O)CN(CCN(CC(=O)O)CC(=O)O)CCN(CC(=O)O)CC(=O)*; Aba(Apy) = not defined here
EXPERIMENTAL_ENDPOINT: Kd (nM)

P = KPXRPYIL (N-terminal DTPA; D-Lys at 1; Gly(PipAm) ((N-amidinopiperidinyl)glycine) at 3 (X), also called Compound II) [DTPA-DLys-Pro-Gly(PipAm)-Arg-Pro-Tyr-Ile-Leu-OH]
Q = {DTPA}-[dK]P[Aba(Apy)]RPYIL-OH (reading uncertain, also called Compound III) [DTPA-DLys-Pro-Aba(Apy)-Arg-Pro-Tyr-Ile-Leu-OH]
R = KPXRPYIL (N-terminal DTPA; D-Lys at 1; (4-Gu)Phe [Phe(4-guanyl)] at 3 (X), also called Compound I; DTPA-DLys-Pro-Phe(4-guanyl)-Arg-Pro-Tyr-Ile-Leu-OH) [DTPA-DLys-Pro-(4-Gu)Phe-Arg-Pro-Tyr-Ile-Leu-OH]
Rank the 3 binders: largest Kd first, smallest last. Lab note: record answer as labels in requested order. Q, R, P
(Q: 68 nM, R: 8.6 nM, P: 2.7 nM)
